# System: human OX2R (Homo sapiens)
# Sequence (O43614 1-444): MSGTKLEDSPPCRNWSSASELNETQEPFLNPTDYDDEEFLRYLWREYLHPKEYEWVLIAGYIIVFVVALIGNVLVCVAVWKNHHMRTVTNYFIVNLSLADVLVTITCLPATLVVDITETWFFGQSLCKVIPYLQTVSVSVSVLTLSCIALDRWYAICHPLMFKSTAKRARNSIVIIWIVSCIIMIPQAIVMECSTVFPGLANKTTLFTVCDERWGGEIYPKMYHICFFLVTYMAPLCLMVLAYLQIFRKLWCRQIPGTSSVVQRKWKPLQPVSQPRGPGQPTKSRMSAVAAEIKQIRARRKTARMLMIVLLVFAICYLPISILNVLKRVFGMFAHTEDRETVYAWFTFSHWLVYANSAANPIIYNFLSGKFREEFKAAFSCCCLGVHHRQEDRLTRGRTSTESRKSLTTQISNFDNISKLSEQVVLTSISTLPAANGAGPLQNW
# Procedure Details: IPOne (IP-One) orexin receptor agonist assay in CHO cells expressing human OX2R
# Cond: CHO cells expressing human OX2R; IP-One detection; 2 hours incubation; four parameter logistic fit; read-out: OX2R Potency, EC50
Reported Metric: pEC50
A value of pEC50 is the negative decimal logarithm of a concentration given in moles per litre.

The following compounds have reported results that may help.
smi=CS(=O)(=O)N[C@H]1CCN(c2cscn2)[C@H]1CO[C@H]1CC[C@@H](c2ccccc2)CC1 obs_value=7.75
smi=Cc1ncccc1N1CC[C@H](NS(C)(=O)=O)[C@@H]1CO[C@H]1CC[C@@H](c2ccccc2)CC1 obs_value=5.47
smi=CC(C)(O)c1ccc(N2CC[C@H](NS(C)(=O)=O)[C@@H]2CO[C@H]2CC[C@@H](c3ccccc3)CC2)cn1 obs_value=7.42

Using the record for Cn1cc(F)c(=O)cc1N1CC[C@H](NS(C)(=O)=O)[C@@H]1CO[C@H]1CC[C@@H](c2ccccc2)CC1 , report its pEC50.
7.53

----------
# System: human OX2R (Homo sapiens, UniProt O43614)
# Construct: expressed in transfected cells; host or cells: Chinese hamster ovary (CHO) cells, kept under G418 selection
# Procedure Details: IPOne (IP-One) orexin receptor agonist assay in CHO cells expressing human OX2R
# Assay type: cell-based
# Cond: human OX2R; percentage of sample raw value/mean max effect (reference compound at 1 uM with 100% activity)
# Description: The utility of the compounds in accordance with the present invention as orexin receptor OX1R and/or OX2R agonists may be readily determined without undue experimentation by methodology well known in the art. […] The utility of the compounds in accordance with the present invention as orexin receptor OX1R and/or OX2R agonists may be determined utilizing this assay. […]
Reported Metric: % max agonist effect (Emax) (%)
The answer is to be given in %; state only the numeric part.

Recorded % max agonist effect (Emax), per entry:
compound=CS(=O)(=O)N[C@H]1CCN(c2ncc(F)c(O)c2F)[C@H]1CO[C@H]1CC[C@@H](c2cccc(F)c2)CC1 obs_value=101.8
compound="Cc1nnc(N2CC[C@H](NS(C)(=O)=O)[C@@H]2CO[C@H]2CC[C@@H](c3ccccc3)CC2)s1 (relative stereo)" obs_value=99.6
compound=CN(C)c1ccnc(N2CC[C@H](NS(C)(=O)=O)[C@@H]2CO[C@H]2CC[C@@H](c3ccccc3)CC2)c1 obs_value=97.4
compound=CS(=O)(=O)N[C@H]1CCN(c2ccccn2)[C@H]1CO[C@H]1CC[C@@H](c2ccccc2)CC1 obs_value=101.3
compound=CS(=O)(=O)N[C@H]1CCN(c2cc(O)c(Cl)cn2)[C@H]1CO[C@H]1CC[C@@H](c2ccccc2)CC1 obs_value=102.4
compound="Cc1nc(-c2ccccc2)sc1N1CC[C@H](NS(C)(=O)=O)[C@@H]1CO[C@H]1CC[C@@H](c2ccccc2)CC1 (relative stereo)" obs_value=87.7

# context switch: different compound, same % max agonist effect (Emax)
Which % max agonist effect (Emax) value is on record for COc1cc(N2CC[C@H](NS(C)(=O)=O)[C@@H]2CO[C@H]2CC[C@@H](c3ccccc3)CC2)cnc1OC ?
98.9

Every entry's value here was drawn from patent US12312332B2.
